Value source: patent US20100196390A1

target: TrkB (Homo sapiens (Human), UniProt Q16620 32-430); assay: koff of Fab at 25 C; T1/2=Log2/koff
Sequence (Q16620 32-430 limits assumed): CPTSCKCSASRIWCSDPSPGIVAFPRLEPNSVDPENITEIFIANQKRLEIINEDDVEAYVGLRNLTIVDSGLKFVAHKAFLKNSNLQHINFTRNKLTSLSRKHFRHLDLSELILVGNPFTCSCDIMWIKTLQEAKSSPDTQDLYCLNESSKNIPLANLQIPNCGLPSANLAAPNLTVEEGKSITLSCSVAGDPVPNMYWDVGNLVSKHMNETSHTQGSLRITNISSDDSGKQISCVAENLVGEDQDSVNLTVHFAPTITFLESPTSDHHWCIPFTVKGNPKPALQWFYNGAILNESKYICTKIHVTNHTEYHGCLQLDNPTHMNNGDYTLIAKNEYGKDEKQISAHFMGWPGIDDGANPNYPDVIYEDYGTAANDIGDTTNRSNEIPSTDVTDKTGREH
experimental.readout: T1/2 (min)
Write down the numeric answer in min and omit the unit.

# binder, quantitative.readout
data = [
    ("13-B2 (Fab, V domains shown, Fab) VH: QVQLVQSGAEVKKPGASVKVSCKASGYTFTNYDIIWVRQAPGQGLEWMGYINPYNGRREYNEKFKGRVTMTRDTSTSTVYMELSSLRSEDTAVYYCARLLKYRRFRYYAIDYWGQGTTVTVSS VL: DIQMTQSPSSLSASVGDRVTITCRASKPVYSNLAWYQQKPGKAPKLLIYAASNLQSGVPSRFSGSGSGTDYTFTISSLQPEDIATYYCQHFWGSPFTFGQGTKLEIK", 13),
    ("1-H6 (Fab, V domains shown, Fab) VH: QVQLVQSGAEVKKPGASVKVSCKASGYTFTNYVILWVRQAPGQGLEWMGYINPYNDGTKYNEKFKGRVTMTRDTSTSTVYMELSSLRSEDTAVYYCARLLKYRRFSYYAIDYWGQGTTVTVSS VL: DIQMTQSPSSLSASVGDRVTITCRASENVYSNLAWYQQKPGKAPKLLIYAASNLQSGVPSRFSGSGSGTDFTFTISSLQPEDIATYYCQHFWWSPFTFGQGTKLEIK", 0.62),
]

Then there is this binder:
Prompt line: Entry 13-H3 (Fab, V domains shown, Fab) VH: QVQLVQSGAEVKKPGASVKVSCKASGYTFTNYDIIWVRQAPGQGLEWMGYINPYNDGRKENEKFKGRVTMTRDTSTSTVYMELSSLRSEDTAVYYCARLLKYRRFRYYAIDYWGQGTTVTVSS VL: DIQMTQSPSSLSASVGDRVTITCRASENVYSNLAWYQQKPGKAPKLLIYAASNLQSGVPSRFSGSGSGTDYTFTISSLQPEDIATYYCQHFWGSPFTFGQGTKLEIK : reported T1/2 = ?
Response line: 13
